These measurements were taken from patent US20240246942A1.

Assay: Microsomal stability, human
Type: in vitro ADME
Conditions: human microsomes
Attribute: Mic. stability t1/2 Human
value kind: Mic. stability t1/2 Human

structure: O=C(Nc1cnn(-c2csc(C(=O)NC3COC3)c2)c1)Nc1ccc(F)cc1Cl
observed measurement: >120 min

structure: O=C(Nc1cnn(-c2csc(C(=O)NC3CC3)c2)c1)Nc1ccccc1Cl
observed measurement: 49 min

structure: O=C(Nc1cnn(-c2csc(C(=O)NC3CCOCC3)c2)c1)Nc1ccccc1Cl
observed measurement: 32 min

---

Target: UniProt:P45983
Sequence (P45983 whole entry): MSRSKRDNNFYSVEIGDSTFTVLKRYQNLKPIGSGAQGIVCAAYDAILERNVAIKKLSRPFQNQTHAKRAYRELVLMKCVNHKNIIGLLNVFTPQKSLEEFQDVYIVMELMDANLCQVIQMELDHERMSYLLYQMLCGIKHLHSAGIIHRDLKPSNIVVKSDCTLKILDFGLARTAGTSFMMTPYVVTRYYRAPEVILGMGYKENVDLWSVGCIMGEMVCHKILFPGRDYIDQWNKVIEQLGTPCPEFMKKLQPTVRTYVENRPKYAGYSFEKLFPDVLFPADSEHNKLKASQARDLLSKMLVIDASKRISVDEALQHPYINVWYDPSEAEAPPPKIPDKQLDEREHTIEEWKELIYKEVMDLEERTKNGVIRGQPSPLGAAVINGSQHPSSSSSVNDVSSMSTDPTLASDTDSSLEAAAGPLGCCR
Assay: JNK1 homogeneous time-resolved fluorescence enzyme inhibition assay
Format: biochemical
Conditions: mean of ≥2 experiments; read-out: Biochemical inhibition IC50 JNK1
Description: A 10-point titration of all compounds was carried out in 3-fold dilutions from 10 μM to 0.5 nM.
Attribute: IC50

structure: O=C(Nc1cnn(-c2csc(C(=O)NCC3CCOCC3)c2)c1)Nc1ccccc1Cl
IC50: 1.5 µM
--
structure: CN1CC[C@H](NC(=O)c2cc(-n3cc(NC(=O)Nc4ccccc4Cl)cn3)cs2)C1
IC50: 2.2 µM
--
structure: CN1CCC(NC(=O)c2cc(-n3cc(NC(=O)Nc4ccccc4Cl)cn3)cs2)CC1
IC50: 4.2 µM
--
structure: CN1CCC(CNC(=O)c2cc(-n3cc(NC(=O)Nc4ccccc4Cl)cn3)cs2)CC1
IC50: 5.8 µM
--
structure: CN1CC[C@@H](NC(=O)c2cc(-n3cc(NC(=O)Nc4ccccc4Cl)cn3)cs2)C1
IC50: 5.1 µM
--
structure: O=C(Nc1cnn(-c2csc(C(=O)N[C@@H]3CCNC3)c2)c1)Nc1ccccc1Cl
IC50: 5.9 µM
--
structure: CN1CCC[C@H]1CNC(=O)c1cc(-n2cc(NC(=O)Nc3ccccc3Cl)cn2)cs1
IC50: 9.1 µM
--
structure: O=C(Nc1cnn(-c2csc(C(=O)NC3CC3)c2)c1)Nc1ccccc1Cl
IC50: 7.4 µM
--
structure: CN1CC[C@H](CNC(=O)c2cc(-n3cc(NC(=O)Nc4ccccc4Cl)cn3)cs2)C1
IC50: 10.3 µM
--
structure: O=C(Nc1cnn(-c2csc(C(=O)NC3CCOCC3)c2)c1)Nc1ccccc1Cl
IC50: 1.9 µM
